Measurement record for Acetylcholinesterase (Electrophorus electricus); quantity recorded: IC50.

- Record smiles: "N#Cc1cc(C#N)c(N2C3CCC2CC3)nc1Cl"
  Tgt: "Acetylcholinesterase (Electrophorus electricus)"
  Reported measurement: "75 µM"

Continue with the next compound.
QUERY: Indicate its recorded IC50; the compound in question is `N#Cc1cc(C#N)c(N2CCCCC2)nc1N`
RESULT: > 100 µM

====

Tgt: Acetylcholinesterase (Electrophorus electricus, UniProt O42275)
Sequence (O42275 whole entry): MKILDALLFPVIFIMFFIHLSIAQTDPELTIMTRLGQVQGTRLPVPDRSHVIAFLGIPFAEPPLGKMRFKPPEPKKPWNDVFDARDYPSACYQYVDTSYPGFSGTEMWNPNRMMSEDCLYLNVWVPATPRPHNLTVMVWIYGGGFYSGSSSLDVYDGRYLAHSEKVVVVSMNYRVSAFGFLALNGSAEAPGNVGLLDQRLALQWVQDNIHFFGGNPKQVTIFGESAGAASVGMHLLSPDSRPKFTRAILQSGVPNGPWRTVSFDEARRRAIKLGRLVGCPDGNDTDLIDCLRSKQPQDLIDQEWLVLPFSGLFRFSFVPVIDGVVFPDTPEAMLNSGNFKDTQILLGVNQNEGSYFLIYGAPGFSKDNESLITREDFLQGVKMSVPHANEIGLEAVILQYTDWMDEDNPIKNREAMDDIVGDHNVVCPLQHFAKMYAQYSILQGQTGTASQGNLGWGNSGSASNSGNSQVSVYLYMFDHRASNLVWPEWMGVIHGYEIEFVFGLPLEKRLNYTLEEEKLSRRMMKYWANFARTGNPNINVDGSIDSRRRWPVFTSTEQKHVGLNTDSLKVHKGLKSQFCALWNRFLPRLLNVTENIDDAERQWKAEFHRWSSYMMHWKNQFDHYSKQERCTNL
Protocol: Non competitive inhibition of Electrophorus electricus AChE by Lineweaver-Burke plot analysis
Reported property: Ki (µM)
Write it as a number; the unit µM goes unstated.

QUERY: Indicate its recorded Ki; the molecule in question is `N#Cc1cc(C#N)c(N2CCCCC2)nc1Cl`
RESULT: 17.2

====

Tgt: Acetylcholinesterase (Electrophorus electricus)
Documented IC50 across a set of compounds

// solved cases for IC50 follow
- Record smiles: "N#Cc1c(N)nc(N2C3CCC2CC3)c(C#N)c1-c1ccccc1"
  Tgt: "Acetylcholinesterase (Electrophorus electricus)"
  IC50: "> 100 µM"
- Record smiles: "N#Cc1cc(C#N)c(N2C3CCC2CC3)nc1N"
  Tgt: "Acetylcholinesterase (Electrophorus electricus)"
  IC50: "> 100 µM"

QUERY: Indicate its recorded IC50; the compound in question is `CN(C)c1nc(Cl)c(C#N)c(-c2ccccc2)c1C#N`
RESULT: 10 µM

QUERY: Indicate its recorded IC50; the compound in question is `CCOc1nc(N)c(C#N)cc1C#N`
RESULT: > 100 µM

QUERY: Indicate its recorded IC50; the compound in question is `N#Cc1cc(C#N)c(N2CCCC2)nc1N`
RESULT: 3.5 µM

QUERY: Indicate its recorded IC50; the compound in question is `N#Cc1c(N)nc(N2CCCCC2)c(C#N)c1-c1ccccc1`
RESULT: > 100 µM

QUERY: Indicate its recorded IC50; the compound in question is `N#Cc1cc(C#N)c(N2CCC(Cc3ccccc3)CC2)nc1N`
RESULT: > 100 µM

====

Tgt: Butyrylcholinesterase (Equus caballus)
Sequence (Q9N1N9 whole entry): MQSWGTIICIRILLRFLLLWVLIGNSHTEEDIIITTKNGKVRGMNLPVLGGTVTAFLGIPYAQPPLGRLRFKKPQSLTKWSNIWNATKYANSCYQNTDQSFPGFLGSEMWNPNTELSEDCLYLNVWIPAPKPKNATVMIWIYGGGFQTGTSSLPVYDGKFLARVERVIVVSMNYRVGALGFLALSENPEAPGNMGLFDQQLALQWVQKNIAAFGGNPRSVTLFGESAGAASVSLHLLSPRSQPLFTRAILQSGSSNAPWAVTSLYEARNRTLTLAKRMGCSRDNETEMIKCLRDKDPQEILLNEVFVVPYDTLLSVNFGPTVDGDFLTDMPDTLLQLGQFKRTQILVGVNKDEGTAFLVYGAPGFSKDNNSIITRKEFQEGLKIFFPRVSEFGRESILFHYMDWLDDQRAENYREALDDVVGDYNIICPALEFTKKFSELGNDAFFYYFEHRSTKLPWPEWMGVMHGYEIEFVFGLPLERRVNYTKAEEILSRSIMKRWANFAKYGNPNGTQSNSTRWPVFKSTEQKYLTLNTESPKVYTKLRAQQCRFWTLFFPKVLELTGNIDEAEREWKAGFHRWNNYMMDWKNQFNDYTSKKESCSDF
Protocol: Inhibition of equine serum BuChE after 10 mins by Ellman's method
Documented IC50 across a set of molecules

// solved cases for IC50 follow
- Record smiles: "N#Cc1c(N)nc(N2CCCCC2)c(C#N)c1-c1ccccc1"
  Reported measurement: "> 100 µM"
- Record smiles: "N#Cc1cc(C#N)c(OCCCc2ccccc2)nc1N"
  Reported measurement: "> 100 µM"
- Record smiles: "N#Cc1cc(C#N)c(NCCO)nc1N"
  Reported measurement: "> 100 µM"
- Record smiles: "N#Cc1cc(C#N)c(N2CCCCC2)nc1Cl"
  Reported measurement: "> 100 µM"
- Record smiles: "N#Cc1cc(C#N)c(N2CCCCC2)nc1N"
  Reported measurement: "26 µM"

QUERY: Indicate its recorded IC50; the molecule in question is `CN(C)c1nc(Cl)c(C#N)c(-c2ccccc2)c1C#N`
RESULT: > 100 µM

QUERY: Indicate its recorded IC50; the molecule in question is `N#Cc1cc(C#N)c(N2C3CCC2CC3)nc1Cl`
RESULT: 24 µM

QUERY: Indicate its recorded IC50; the molecule in question is `N#Cc1c(N)nc(Sc2ccccc2)c(C#N)c1-c1ccccc1`
RESULT: > 100 µM

QUERY: Indicate its recorded IC50; the molecule in question is `N#Cc1c(Cl)nc(N2C3CCC2CC3)c(C#N)c1-c1ccccc1`
RESULT: > 100 µM

QUERY: Indicate its recorded IC50; the molecule in question is `COc1nc(N)c(C#N)cc1C#N`
RESULT: > 100 µM

QUERY: Indicate its recorded IC50; the molecule in question is `N#Cc1c(N)nc(N2C3CCC2CC3)c(C#N)c1-c1ccccc1`
RESULT: 3.8 µM

QUERY: Indicate its recorded IC50; the molecule in question is `N#Cc1cc(C#N)c(N2CCC(Cc3ccccc3)CC2)nc1N`
RESULT: > 100 µM

QUERY: Indicate its recorded IC50; the molecule in question is `N#Cc1cc(C#N)c(N2CCC(O)CC2)nc1N`
RESULT: > 100 µM

QUERY: Indicate its recorded IC50; the molecule in question is `N#Cc1c(N)nc(NCc2ccccc2)c(C#N)c1-c1ccccc1`
RESULT: > 100 µM

QUERY: Indicate its recorded IC50; the molecule in question is `CCOc1nc(N)c(C#N)cc1C#N`
RESULT: > 100 µM

QUERY: Indicate its recorded IC50; the molecule in question is `N#Cc1cc(C#N)c(N2CCCC2)nc1N`
RESULT: > 100 µM

QUERY: Indicate its recorded IC50; the molecule in question is `N#Cc1cc(C#N)c(N2C3CCC2CC3)nc1N`
RESULT: > 100 µM

QUERY: Indicate its recorded IC50; the molecule in question is `CN(C)c1nc(N)c(C#N)c(-c2ccccc2)c1C#N`
RESULT: > 100 µM

QUERY: Indicate its recorded IC50; the molecule in question is `N#Cc1c(N)nc(S)c(C#N)c1-c1ccccc1`
RESULT: > 100 µM

QUERY: Indicate its recorded IC50; the molecule in question is `N#Cc1c(Cl)nc(N2CCCC2)c(C#N)c1-c1ccccc1`
RESULT: > 100 µM

QUERY: Indicate its recorded IC50; the molecule in question is `N#Cc1cc(C#N)c(N2CCCC2)nc1Cl`
RESULT: > 100 µM

QUERY: Indicate its recorded IC50; the molecule in question is `C#CCNc1nc(N)c(C#N)cc1C#N`
RESULT: > 100 µM

QUERY: Indicate its recorded IC50; the molecule in question is `CN(C)c1nc(N)c(C#N)cc1C#N`
RESULT: > 100 µM

QUERY: Indicate its recorded IC50; the molecule in question is `CN(C)c1nc(Cl)c(C#N)cc1C#N`
RESULT: > 100 µM

QUERY: Indicate its recorded IC50; the molecule in question is `N#Cc1c(Cl)nc(N2CCCCC2)c(C#N)c1-c1ccccc1`
RESULT: > 100 µM

====

pIC50: −log10 of the molar value.
Measurement record for Acetylcholinesterase (Electrophorus electricus, UniProt O42275); quantity recorded: pIC50.

// solved cases for pIC50 follow
- Record smiles: "CN(C)c1nc(N)c(C#N)c(-c2ccccc2)c1C#N"
  pIC50: "< 4.00"
- Record smiles: "CN(C)c1nc(N)c(C#N)cc1C#N"
  pIC50: 4.64
- Record smiles: "N#Cc1c(N)nc(S)c(C#N)c1-c1ccccc1"
  pIC50: "< 4.00"
- Record smiles: "COc1nc(N)c(C#N)cc1C#N"
  pIC50: "< 4.00"
- Record smiles: "N#Cc1c(N)nc(NCc2ccccc2)c(C#N)c1-c1ccccc1"
  pIC50: "< 4.00"
- Record smiles: "N#Cc1cc(C#N)c(N2CCC(O)CC2)nc1N"
  pIC50: "< 4.00"

QUERY: Indicate its recorded pIC50; the compound in question is `N#Cc1c(Cl)nc(N2CCCCC2)c(C#N)c1-c1ccccc1`
RESULT: < 4.00

QUERY: Indicate its recorded pIC50; the compound in question is `N#Cc1c(N)nc(Sc2ccccc2)c(C#N)c1-c1ccccc1`
RESULT: < 4.00

QUERY: Indicate its recorded pIC50; the compound in question is `N#Cc1cc(C#N)c(OCCCc2ccccc2)nc1N`
RESULT: < 4.00

QUERY: Indicate its recorded pIC50; the compound in question is `N#Cc1c(Cl)nc(N2CCCC2)c(C#N)c1-c1ccccc1`
RESULT: 5.25

QUERY: Indicate its recorded pIC50; the compound in question is `N#Cc1cc(C#N)c(N2CCCCC2)nc1Cl`
RESULT: 5.02

====

Tgt: UniProt:O42275
Protocol: Inhibition of Electrophorus electricus AChE after 10 mins by Ellman's method
Documented pIC50 across a set of molecules
Scale: negative log10 of molar concentration, which is what pIC50 denotes.

- Record smiles: "CN(C)c1nc(Cl)c(C#N)cc1C#N"
  Tgt: "UniProt:O42275"
  Reported measurement: 5.30

Continue with the next molecule.
QUERY: Indicate its recorded pIC50; the molecule in question is `N#Cc1cc(C#N)c(N2CCCC2)nc1Cl`
RESULT: 6.10

====

pIC50: −log10 of the molar value.
Measurement record for Acetylcholinesterase (Electrophorus electricus); quantity recorded: pIC50.

- Record smiles: "C#CCNc1nc(N)c(C#N)cc1C#N"
  Reported property: "pIC50"
  Reported measurement: "< 4.00"
- Record smiles: "N#Cc1cc(C#N)c(NCCO)nc1N"
  Reported property: "pIC50"
  Reported measurement: "< 4.00"

Continue with the next molecule.
QUERY: Indicate its recorded pIC50; the molecule in question is `N#Cc1c(Cl)nc(N2C3CCC2CC3)c(C#N)c1-c1ccccc1`
RESULT: < 4.00
